Tested on: MV4-11
Assay: Potency index, ratio of Y08207 IC50 to test compound IC50 for antiproliferative activity against human MV4-11 cells assessed as inhibition of cell growth incubated for 120 hrs by celltiter glo luminescence analysis
Type: functional
Ratio IC50 by entry:

# annotated cases, reported Ratio IC50 shown
| COMPOUND | Ratio IC50 |
| --- | --- |
| CC(=O)c1cc(C(=O)Nc2cc(CO)cc(-c3cnn(C)c3)c2F)c2cc(OCC(=O)NCCCNc3cccc4c3C(=O)N(C3CCC(=O)NC3=O)C4=O)ccn12 (stereo unspecified) | 6 |
| CC(=O)c1cc(C(=O)Nc2cc(CO)cc(-c3cnn(C)c3)c2F)c2cc(OCCCCCCCC(=O)NCC#Cc3cccc4c3C(=O)N(C3CCC(=O)NC3=O)C4=O)ccn12 (stereo unspecified) | ~2 |
| CC(=O)c1cc(C(=O)Nc2cc(CO)cc(-c3cnn(C)c3)c2F)c2cc(OCC(=O)NCCCCNc3cccc4c3C(=O)N(C3CCC(=O)NC3=O)C4=O)ccn12 (stereo unspecified) | 140 |
| CC(=O)c1cc(C(=O)Nc2cc(CO)cc(-c3cnn(C)c3)c2F)c2cc(OCCCCCCC(=O)NCC#Cc3cccc4c3C(=O)N(C3CCC(=O)NC3=O)C4=O)ccn12 (stereo unspecified) | ~2 |
| CC(=O)c1cc(C(=O)Nc2cc(CO)cc(-c3cnn(C)c3)c2F)c2cc(OCCCCCC(=O)NCCCc3cccc4c3C(=O)N(C3CCC(=O)NC3=O)C4=O)ccn12 (stereo unspecified) | ~8 |

Attention now turns to another entry.
Given CC(=O)c1cc(C(=O)Nc2cc(CO)cc(-c3cnn(C)c3)c2F)c2cc(OCCCCC(=O)NCCCc3cccc4c3C(=O)N(C3CCC(=O)NC3=O)C4=O)ccn12 (stereo unspecified) , state its recorded Ratio IC50.
~8

====

Target: Histone acetyltransferase p300 (Homo sapiens, UniProt Q09472)
Sequence (Q09472 whole entry, the tested form may be a part): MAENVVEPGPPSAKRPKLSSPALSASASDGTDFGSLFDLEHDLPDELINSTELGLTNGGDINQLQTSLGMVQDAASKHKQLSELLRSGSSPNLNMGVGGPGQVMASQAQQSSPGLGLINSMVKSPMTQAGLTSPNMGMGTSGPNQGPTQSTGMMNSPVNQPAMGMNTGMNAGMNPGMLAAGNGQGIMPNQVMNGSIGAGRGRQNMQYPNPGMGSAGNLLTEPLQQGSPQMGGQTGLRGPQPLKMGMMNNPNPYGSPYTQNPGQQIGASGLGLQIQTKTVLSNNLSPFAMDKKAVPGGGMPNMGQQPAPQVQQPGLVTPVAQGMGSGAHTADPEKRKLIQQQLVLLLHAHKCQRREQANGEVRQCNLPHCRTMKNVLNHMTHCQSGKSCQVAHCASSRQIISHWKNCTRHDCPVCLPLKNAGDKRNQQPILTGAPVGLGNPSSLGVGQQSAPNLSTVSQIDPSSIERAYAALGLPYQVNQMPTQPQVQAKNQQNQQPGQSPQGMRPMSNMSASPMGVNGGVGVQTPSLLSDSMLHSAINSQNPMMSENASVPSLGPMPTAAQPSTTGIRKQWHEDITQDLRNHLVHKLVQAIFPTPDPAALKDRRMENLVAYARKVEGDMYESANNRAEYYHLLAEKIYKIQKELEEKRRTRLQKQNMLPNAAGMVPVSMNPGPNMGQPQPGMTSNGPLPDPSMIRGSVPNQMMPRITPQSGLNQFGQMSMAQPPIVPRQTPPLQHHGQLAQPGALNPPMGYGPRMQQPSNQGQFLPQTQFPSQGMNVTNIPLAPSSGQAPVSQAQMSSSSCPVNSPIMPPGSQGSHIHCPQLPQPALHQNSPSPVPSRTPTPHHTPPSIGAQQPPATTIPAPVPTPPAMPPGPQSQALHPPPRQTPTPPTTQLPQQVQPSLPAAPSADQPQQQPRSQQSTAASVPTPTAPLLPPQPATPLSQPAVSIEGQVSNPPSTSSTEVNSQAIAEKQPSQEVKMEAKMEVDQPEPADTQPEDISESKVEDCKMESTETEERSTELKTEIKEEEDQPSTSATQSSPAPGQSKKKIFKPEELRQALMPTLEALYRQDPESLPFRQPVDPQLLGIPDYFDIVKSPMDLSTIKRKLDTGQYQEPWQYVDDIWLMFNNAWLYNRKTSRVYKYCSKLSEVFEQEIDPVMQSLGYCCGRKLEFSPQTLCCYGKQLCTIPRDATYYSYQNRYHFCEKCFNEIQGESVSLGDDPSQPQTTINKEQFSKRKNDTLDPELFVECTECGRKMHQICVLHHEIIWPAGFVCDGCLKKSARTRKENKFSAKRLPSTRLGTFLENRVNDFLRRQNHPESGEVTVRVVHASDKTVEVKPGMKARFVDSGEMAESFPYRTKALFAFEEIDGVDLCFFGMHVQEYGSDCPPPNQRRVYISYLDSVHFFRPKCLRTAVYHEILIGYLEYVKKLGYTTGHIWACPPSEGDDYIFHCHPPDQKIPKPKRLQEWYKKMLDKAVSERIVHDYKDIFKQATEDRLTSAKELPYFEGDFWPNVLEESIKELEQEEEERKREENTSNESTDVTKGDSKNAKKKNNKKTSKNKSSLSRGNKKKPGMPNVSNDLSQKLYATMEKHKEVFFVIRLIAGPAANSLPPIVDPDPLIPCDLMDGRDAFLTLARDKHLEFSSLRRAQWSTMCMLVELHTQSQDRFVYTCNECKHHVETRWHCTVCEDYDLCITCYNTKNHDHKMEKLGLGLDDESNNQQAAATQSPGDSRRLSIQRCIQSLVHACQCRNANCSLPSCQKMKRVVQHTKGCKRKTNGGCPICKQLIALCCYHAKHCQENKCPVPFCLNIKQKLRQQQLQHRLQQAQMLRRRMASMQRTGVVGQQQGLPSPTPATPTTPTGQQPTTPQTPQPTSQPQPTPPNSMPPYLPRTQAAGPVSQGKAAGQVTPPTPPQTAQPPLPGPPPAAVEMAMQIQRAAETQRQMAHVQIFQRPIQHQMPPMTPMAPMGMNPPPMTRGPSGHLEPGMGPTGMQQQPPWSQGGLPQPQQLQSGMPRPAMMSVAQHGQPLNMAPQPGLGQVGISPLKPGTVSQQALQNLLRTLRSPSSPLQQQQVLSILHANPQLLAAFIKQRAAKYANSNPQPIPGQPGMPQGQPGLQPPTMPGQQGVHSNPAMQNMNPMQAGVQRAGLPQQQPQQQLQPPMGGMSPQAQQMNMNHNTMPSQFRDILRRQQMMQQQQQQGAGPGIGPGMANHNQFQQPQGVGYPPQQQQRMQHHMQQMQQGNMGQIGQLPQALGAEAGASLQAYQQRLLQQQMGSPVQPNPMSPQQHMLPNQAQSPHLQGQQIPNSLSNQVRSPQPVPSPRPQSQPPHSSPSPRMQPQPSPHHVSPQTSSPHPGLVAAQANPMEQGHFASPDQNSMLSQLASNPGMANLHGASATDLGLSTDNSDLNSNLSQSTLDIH
Experiment: Inhibition of C-terminal biotinylated tetra-acetylated histone peptide H4 binding to His6-fused human p300 bromodomain (A1040 to G1161 residues) incubated for 1 hrs by HTRF assay
READOUT NAME: IC50 (nM)
Your answer should be a plain number; it is taken to be in nM.

# annotated cases, reported IC50 shown
| MOLECULE | IC50 [nM] |
| --- | --- |
| CC(=O)c1cc(C(=O)Nc2cc(CO)cc(-c3cnn(C)c3)c2F)c2cc(OCCCCCC(=O)NCCCc3cccc4c3C(=O)N(C3CCC(=O)NC3=O)C4=O)ccn12 (stereo unspecified) | 46 |
| CC(=O)c1cc(C(=O)Nc2cc(CO)cc(-c3cnn(C)c3)c2F)c2cc(O)ccn12 | 7 |
| CC(=O)c1cc(C(=O)Nc2cc(CO)cc(-c3cnn(C)c3)c2F)c2cc(OCCCCC(=O)NCCCc3cccc4c3C(=O)N(C3CCC(=O)NC3=O)C4=O)ccn12 (stereo unspecified) | 22 |
| CC(=O)c1cc(C(=O)Nc2cc(CO)cc(-c3cnn(C)c3)c2F)c2cc(OCC(=O)NCCCCNc3cccc4c3C(=O)N(C3CCC(=O)NC3=O)C4=O)ccn12 (stereo unspecified) | 30 |
| CC(=O)c1cc(C(=O)Nc2cc(CO)cc(-c3cnn(C)c3)c2F)c2cc(OCCCC(=O)NCCNc3cccc4c3C(=O)N(C3CCC(=O)NC3=O)C4=O)ccn12 (stereo unspecified) | 77 |

Attention now turns to another entry.
Given CC(=O)c1cc(C(=O)Nc2cc(CO)cc(-c3cnn(C)c3)c2F)c2cc(OCCCCCCC(=O)NCCCc3cccc4c3C(=O)N(C3CCC(=O)NC3=O)C4=O)ccn12 (stereo unspecified) , state its recorded IC50.
51
